- system.under.test: T1, Recombinant Human FGFR2 alpha (IIIc) Fc Chimera Protein, CF (R&D systems, 712-FR-050) (human, UniProt P21802 22-377)
- T1 construct: bought; not shown: Fc part of the chimera
- assay.remarks: ELISA on plate-bound FGFR2-Fc
Bridge positions count the residues as written; N and C are the ends. Ends that are not written are not given here. COCH2 = acetyl group that carries the bridge
Field: ELISA luminescence signal at 10 nmol/L peptide, relative to SEQ ID NO: 47 (=1). Provide a value for each of the binders that follow.

These recorded examples may help you get a feel for the data.
INSERT INTO assay_data (binder, result) VALUES
  ('YCEENYWDPEQYQYFIYFK(COCH2)Y (thioether 2-19 (inferred)) [cyclic peptide SEQ ID NO: 199]', '≥ 0.7 ratio'),
  ('YCEENYLDPEQYQYFIYFK(COCH2)G (thioether 2-19 (inferred)) [cyclic peptide SEQ ID NO: 308]', '≥ 0.7 ratio'),
  ('YCEENYLAPEQYQYFIYFK(COCH2)Y (thioether 2-19 (inferred)) [cyclic peptide SEQ ID NO: 328]', '≥ 0.7 ratio'),
  ('YCTQEQAFRQLAYYQIFRRSK(COCH2)S (thioether 2-21 (inferred)) [cyclic peptide SEQ ID NO: 422]', '0.1 to 0.5 ratio'),
  ('QCPQSFINPVQWRYFQHYK(COCH2)N (thioether 2-19) [cyclic peptide SEQ ID NO: 97]', '0.1 to 0.5 ratio'),
  ('TCVDKDNWYNHVQWQYFFLYK(COCH2)Q (thioether 2-21) [cyclic peptide SEQ ID NO: 411]', '≥ 0.7 ratio'),
  ('YCHENYLDPEQYQYFHYFK(COCH2)H (thioether 2-19) [cyclic peptide SEQ ID NO: 395]', '≥ 0.7 ratio'),
  ('YCEENYLDFEQYQYFIYFK(COCH2)Y (thioether 2-19 (inferred)) [cyclic peptide SEQ ID NO: 225]', '≥ 0.7 ratio');

// each listed binder needs a value for ELISA luminescence signal at 10 nmol/L peptide, relative to SEQ ID NO: 47 (=1)
1. QCPQTFINPVQWRYFQHYK(COCH2)N (thioether 2-19) [cyclic peptide SEQ ID NO: 98]
2. KCPQNAINPVQWRYFQHYKN (thioether ring (C)-(K(acetyl))) [cyclic peptide SEQ ID NO: 57]
3. YCEENYLDPEQYQYFIRFK(COCH2)Y (thioether 2-19 (inferred)) [cyclic peptide SEQ ID NO: 304]
4. YCEENYLDPEQYLYFIYFK(COCH2)Y (thioether 2-19 (inferred)) [cyclic peptide SEQ ID NO: 258]

0.1 to 0.5 ratio
0.5 to 0.7 ratio
≥ 0.7 ratio
≥ 0.7 ratio
